Data provenance is PubChem BioAssay (NCI).

Assay: NCI Yeast Anticancer Drug Screen. Data for the mlh1 rad18 strain (AID 175)
Details: S. cerevisiae mlh1 rad18 strain growth inhibition; at 50.0 µM; hits give high values
Compounds without any hit were thinned out: in the full panel of roughly 79,000, 15% have a hit.
Measured growth inhibition by item
All answers are understood in %, so give the number only.

Prompt: Which growth inhibition is listed for `CC(=O)NNc1ccc(C(=O)O)cc1` ?
Response: -2.4

Prompt: // repeat for `N=C(N)SCc1cccc(Cl)c1` and report
Response: -22.6

Prompt: // repeat for C=CC(CO)N(CC)CC (stereo unspecified) and report
Response: 11.3

Prompt: // repeat for `COc1ccc(/C=C/C(=O)c2sc(N)nc2C)cc1` and report
Response: 13.6

Prompt: // repeat for `Cc1cc(N(CCC#N)CCC#N)ccc1/C(N=Nc1ccc([N+](=O)[O-])cc1)=N\NC(=O)c1cc(Cl)ccc1O` and report
Response: 9.1

Prompt: // repeat for `Cc1cccc(-c2cccc(C)c2C)c1C` and report
Response: 16.1

Next:
Prompt: Which growth inhibition is listed for `O=C1CN(/N=C/c2ccc(-c3ccc(F)cc3)o2)C(=O)N1` ?
Response: -3.45

Prompt: // repeat for `CN(C)CC(C)(C)C(=O)c1ccc(F)cc1` and report
Response: 12.3

Prompt: // repeat for `O=C(CCCl)NNC1=NCCCN1` and report
Response: -0.05

Prompt: // repeat for `Cn1c(=O)c2c(nc(Br)n2CC(=O)c2ccc([N+](=O)[O-])cc2)n(C)c1=O` and report
Response: 27.4

Prompt: // repeat for N#CCCC(CC#N)S(=O)(=O)O (stereo unspecified) and report
Response: -13.1

Prompt: // repeat for `CS(=O)(=O)C(C#N)S(C)(=O)=O` and report
Response: -10.1

Prompt: // repeat for `CCc1ccc(NS(=O)(=O)c2ccc3ccccc3c2)cc1` and report
Response: 96.4
